Provide the recorded shrunken log2 fold change for the entries that follow.
- Tested on: Escherichia coli TOP10
- PROCEDURE DETAILS: shrunken log2 fold change of peptide-encoding DNA abundance (4.5 h post-induction vs induction); higher = less antimicrobial activity (less host growth inhibition)
- EXPERIMENTAL CONTEXT: time post-induction: 4.5 h; library: site-saturation at positions 5, 18, 19, 20
Give your answer as a number; write no unit.

(Q) Report shrunken log2 fold change for RRIRFRPPRLPRPRPRPCATPRP please.
(A) 0.0672

(Q) Report shrunken log2 fold change for RRIRFRPPRLPRPRPRPTHNPRP please.
(A) -0.18

(Q) Report shrunken log2 fold change for RRIRYRPPRLPRPRPRPRWKPRP please.
(A) -0.295

====

- Test system: Escherichia coli TOP10
- PROCEDURE DETAILS: shrunken log2 fold change of peptide-encoding DNA abundance (4.5 h post-induction vs induction); higher = less antimicrobial activity (less host growth inhibition)
- EXPERIMENTAL CONTEXT: time post-induction: 4.5 h; library: site-saturation at positions 5, 18, 19, 20
Provide the recorded shrunken log2 fold change for the entries that follow.
Give your answer as a number; write no unit.

(Q) Report shrunken log2 fold change for RRIRIRPPRLPRPRPRPWDMPRP please.
(A) -0.00715

(Q) Report shrunken log2 fold change for RRIRWRPPRLPRPRPRPLWFPRP please.
(A) 0.134

(Q) Report shrunken log2 fold change for RRIRWRPPRLPRPRPRPMQLPRP please.
(A) 0.12

(Q) Report shrunken log2 fold change for RRIRRRPPRLPRPRPRPELYPRP please.
(A) 0.247

(Q) Report shrunken log2 fold change for RRIRTRPPRLPRPRPRPRQVPRP please.
(A) -0.0471

(Q) Report shrunken log2 fold change for RRIRHRPPRLPRPRPRPTQMPRP please.
(A) 0.222

(Q) Report shrunken log2 fold change for RRIRRRPPRLPRPRPRPRIQPRP please.
(A) 0.241

====

Provide the recorded shrunken log2 fold change for the entries that follow.
- System: Escherichia coli TOP10
- PROCEDURE DETAILS: shrunken log2 fold change of peptide-encoding DNA abundance (4.5 h post-induction vs induction); higher = less antimicrobial activity (less host growth inhibition)
- EXPERIMENTAL CONTEXT: time post-induction: 4.5 h; library: site-saturation at positions 5, 18, 19, 20
Give your answer as a number; write no unit.

(Q) Record lookup: for Escherichia coli TOP10, what shrunken log2 fold change belongs to RRIRIRPPRLPRPRPRPVIWPRP ?
(A) 0.204

(Q) Record lookup: for Escherichia coli TOP10, what shrunken log2 fold change belongs to RRIRWRPPRLPRPRPRPIDNPRP ?
(A) -0.406

(Q) Record lookup: for Escherichia coli TOP10, what shrunken log2 fold change belongs to RRIRSRPPRLPRPRPRPVNKPRP ?
(A) -0.404

====

- System: Escherichia coli TOP10
- PROCEDURE DETAILS: shrunken log2 fold change of peptide-encoding DNA abundance (4.5 h post-induction vs induction); higher = less antimicrobial activity (less host growth inhibition)
- EXPERIMENTAL CONTEXT: time post-induction: 4.5 h; library: site-saturation at positions 5, 18, 19, 20
Provide the recorded shrunken log2 fold change for the entries that follow.

(Q) Report shrunken log2 fold change for RRIRDRPPRLPRPRPRPFRKPRP please.
(A) -0.0314

(Q) Report shrunken log2 fold change for RRIRSRPPRLPRPRPRPVQNPRP please.
(A) 0.0832

(Q) Report shrunken log2 fold change for RRIRARPPRLPRPRPRPWICPRP please.
(A) -0.0278

(Q) Report shrunken log2 fold change for RRIRARPPRLPRPRPRPCSNPRP please.
(A) -0.153

(Q) Report shrunken log2 fold change for RRIRRRPPRLPRPRPRPARQPRP please.
(A) -0.0115

(Q) Report shrunken log2 fold change for RRIRGRPPRLPRPRPRPRFTPRP please.
(A) 0.582

(Q) Report shrunken log2 fold change for RRIRGRPPRLPRPRPRPADFPRP please.
(A) 0.149

(Q) Report shrunken log2 fold change for RRIRRRPPRLPRPRPRPFFQPRP please.
(A) -0.111

(Q) Report shrunken log2 fold change for RRIRPRPPRLPRPRPRPDPPPRP please.
(A) 0.249

(Q) Report shrunken log2 fold change for RRIRFRPPRLPRPRPRPMHAPRP please.
(A) 0.0753

(Q) Report shrunken log2 fold change for RRIRDRPPRLPRPRPRPTGLPRP please.
(A) -0.000418

(Q) Report shrunken log2 fold change for RRIRARPPRLPRPRPRPYWQPRP please.
(A) 0.046

====

- Test system: Escherichia coli TOP10
- PROCEDURE DETAILS: shrunken log2 fold change of peptide-encoding DNA abundance (4.5 h post-induction vs induction); higher = less antimicrobial activity (less host growth inhibition)
- EXPERIMENTAL CONTEXT: time post-induction: 4.5 h; library: site-saturation at positions 5, 18, 19, 20
Provide the recorded shrunken log2 fold change for the entries that follow.
Give your answer as a number; write no unit.

(Q) Report shrunken log2 fold change for RRIRSRPPRLPRPRPRPHHPPRP please.
(A) -0.369

(Q) Report shrunken log2 fold change for RRIRLRPPRLPRPRPRPWRTPRP please.
(A) 0.0595

(Q) Report shrunken log2 fold change for RRIRFRPPRLPRPRPRPVNYPRP please.
(A) 0.184

(Q) Report shrunken log2 fold change for RRIRKRPPRLPRPRPRPWPEPRP please.
(A) 0.0451

(Q) Report shrunken log2 fold change for RRIRFRPPRLPRPRPRPEWMPRP please.
(A) 0.236

(Q) Report shrunken log2 fold change for RRIRARPPRLPRPRPRPLFQPRP please.
(A) 0.0426

====

- Test system: Escherichia coli TOP10;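 note: peptides expressed intracellularly from a pBAD plasmid library in pooled LB shake-flask culture, induced with 0.3% L-arabinose, DNA abundance read by NGS, three biological replicates, DESeq2 with apeglm shrinkage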
- PROCEDURE DETAILS: shrunken log2 fold change of peptide-encoding DNA abundance (4.5 h post-induction vs induction); higher = less antimicrobial activity (less host growth inhibition)
- EXPERIMENTAL CONTEXT: time post-induction: 4.5 h; library: site-saturation at positions 5, 18, 19, 20
READOUT: shrunken log2 fold change
Give your answer as a number; write no unit.

(Q) Report shrunken log2 fold change for RRIRCRPPRLPRPRPRPQGHPRP please.
(A) -0.0916

(Q) Report shrunken log2 fold change for RRIRCRPPRLPRPRPRPITFPRP please.
(A) -0.167

(Q) Report shrunken log2 fold change for RRIRTRPPRLPRPRPRPREMPRP please.
(A) 0.101

(Q) Report shrunken log2 fold change for RRIRDRPPRLPRPRPRPMTFPRP please.
(A) -0.0951

(Q) Report shrunken log2 fold change for RRIRERPPRLPRPRPRPWVNPRP please.
(A) -0.00303

(Q) Report shrunken log2 fold change for RRIRIRPPRLPRPRPRPAFEPRP please.
(A) -0.117

(Q) Report shrunken log2 fold change for RRIRLRPPRLPRPRPRPRVEPRP please.
(A) 0.174

(Q) Report shrunken log2 fold change for RRIRGRPPRLPRPRPRPMFDPRP please.
(A) 0.662

(Q) Report shrunken log2 fold change for RRIRWRPPRLPRPRPRPVAEPRP please.
(A) 1.41

(Q) Report shrunken log2 fold change for RRIRFRPPRLPRPRPRPNPGPRP please.
(A) 0.159

(Q) Report shrunken log2 fold change for RRIRHRPPRLPRPRPRPTDWPRP please.
(A) 0.223

(Q) Report shrunken log2 fold change for RRIRERPPRLPRPRPRPDIEPRP please.
(A) -0.0223

(Q) Report shrunken log2 fold change for RRIRIRPPRLPRPRPRPNSHPRP please.
(A) -0.866

(Q) Report shrunken log2 fold change for RRIRRRPPRLPRPRPRPMNWPRP please.
(A) 0.291

(Q) Report shrunken log2 fold change for RRIRRRPPRLPRPRPRPQKLPRP please.
(A) 0.102

(Q) Report shrunken log2 fold change for RRIRFRPPRLPRPRPRPQQEPRP please.
(A) -0.0424

(Q) Report shrunken log2 fold change for RRIRIRPPRLPRPRPRPIQWPRP please.
(A) 0.0166

(Q) Report shrunken log2 fold change for RRIRGRPPRLPRPRPRPRTQPRP please.
(A) 0.826

(Q) Report shrunken log2 fold change for RRIRPRPPRLPRPRPRPCYYPRP please.
(A) -0.436

(Q) Report shrunken log2 fold change for RRIRSRPPRLPRPRPRPVEGPRP please.
(A) -0.00141

(Q) Report shrunken log2 fold change for RRIRYRPPRLPRPRPRPHTWPRP please.
(A) -0.0877

(Q) Report shrunken log2 fold change for RRIRVRPPRLPRPRPRPTGTPRP please.
(A) 0.699

(Q) Report shrunken log2 fold change for RRIRWRPPRLPRPRPRPSWQPRP please.
(A) -0.0268

(Q) Report shrunken log2 fold change for RRIRSRPPRLPRPRPRPTMHPRP please.
(A) 0.0312

(Q) Report shrunken log2 fold change for RRIRERPPRLPRPRPRPVYCPRP please.
(A) -0.477

(Q) Report shrunken log2 fold change for RRIRFRPPRLPRPRPRPMWKPRP please.
(A) -0.0148

(Q) Report shrunken log2 fold change for RRIRVRPPRLPRPRPRPEWSPRP please.
(A) 0.267

(Q) Report shrunken log2 fold change for RRIRCRPPRLPRPRPRPESEPRP please.
(A) 0.237

(Q) Report shrunken log2 fold change for RRIRNRPPRLPRPRPRPWMVPRP please.
(A) 0.131

(Q) Report shrunken log2 fold change for RRIRLRPPRLPRPRPRPVSSPRP please.
(A) 0.242

(Q) Report shrunken log2 fold change for RRIRHRPPRLPRPRPRPGWGPRP please.
(A) 0.0673

(Q) Report shrunken log2 fold change for RRIRIRPPRLPRPRPRPWSLPRP please.
(A) -0.449

(Q) Report shrunken log2 fold change for RRIRMRPPRLPRPRPRPKIDPRP please.
(A) 0.285

(Q) Report shrunken log2 fold change for RRIRNRPPRLPRPRPRPPHVPRP please.
(A) 0.147

(Q) Report shrunken log2 fold change for RRIRYRPPRLPRPRPRPWIWPRP please.
(A) -0.000921

(Q) Report shrunken log2 fold change for RRIRNRPPRLPRPRPRPKLEPRP please.
(A) 0.0965

(Q) Report shrunken log2 fold change for RRIRARPPRLPRPRPRPKLGPRP please.
(A) 0.023

(Q) Report shrunken log2 fold change for RRIRTRPPRLPRPRPRPIQFPRP please.
(A) -0.0251

(Q) Report shrunken log2 fold change for RRIRKRPPRLPRPRPRPECYPRP please.
(A) -0.0555

(Q) Report shrunken log2 fold change for RRIRERPPRLPRPRPRPLYFPRP please.
(A) -0.764

(Q) Report shrunken log2 fold change for RRIRARPPRLPRPRPRPYDDPRP please.
(A) 0.192

(Q) Report shrunken log2 fold change for RRIRSRPPRLPRPRPRPAQKPRP please.
(A) 0.33

(Q) Report shrunken log2 fold change for RRIRARPPRLPRPRPRPMGQPRP please.
(A) 0.229

(Q) Report shrunken log2 fold change for RRIRLRPPRLPRPRPRPSIDPRP please.
(A) -0.191

(Q) Report shrunken log2 fold change for RRIRSRPPRLPRPRPRPFAQPRP please.
(A) 0.185

(Q) Report shrunken log2 fold change for RRIRVRPPRLPRPRPRPKYSPRP please.
(A) -0.122

(Q) Report shrunken log2 fold change for RRIRHRPPRLPRPRPRPFYGPRP please.
(A) -0.0135

(Q) Report shrunken log2 fold change for RRIRNRPPRLPRPRPRPVFQPRP please.
(A) -0.623

(Q) Report shrunken log2 fold change for RRIRMRPPRLPRPRPRPGCMPRP please.
(A) 0.968

(Q) Report shrunken log2 fold change for RRIRSRPPRLPRPRPRPVVPPRP please.
(A) 0.0433

(Q) Report shrunken log2 fold change for RRIRRRPPRLPRPRPRPMLTPRP please.
(A) 0.211

(Q) Report shrunken log2 fold change for RRIRWRPPRLPRPRPRPAQWPRP please.
(A) 0.287

(Q) Report shrunken log2 fold change for RRIRCRPPRLPRPRPRPRPTPRP please.
(A) 0.808

(Q) Report shrunken log2 fold change for RRIRYRPPRLPRPRPRPVAPPRP please.
(A) -0.0629

(Q) Report shrunken log2 fold change for RRIRNRPPRLPRPRPRPMPFPRP please.
(A) 0.00489

(Q) Report shrunken log2 fold change for RRIRARPPRLPRPRPRPGGHPRP please.
(A) 0.115

(Q) Report shrunken log2 fold change for RRIRNRPPRLPRPRPRPEPFPRP please.
(A) -0.0904

(Q) Report shrunken log2 fold change for RRIRKRPPRLPRPRPRPFTYPRP please.
(A) -0.0389

(Q) Report shrunken log2 fold change for RRIRCRPPRLPRPRPRPCDRPRP please.
(A) -0.351
